Measured values drawn from ChEMBL document CHEMBL3885861 for this set.

For each record, write down the corresponding Bas.
- Species: Rattus norvegicus
- Experimental protocol: Open TG-GATES - Regimen: Daily Repeat
- Type: toxicity, organism-based, Sprague-Dawley
- Parameters: regimen Daily Repeat, gender Male, age 6 weeks
- Condition: in vivo, po, 100 mg/kg, […], tissue Blood, route gavage, dose level Low, time 28 day
Please give a number only; it is taken to be in %.

// Bas lookup, compound = CCCCNC(=O)NS(=O)(=O)c1ccc(C)cc1 [TOLBUTAMIDE] , result: 0.6

// Bas lookup, compound = `CC(=O)[C@@]1(O)CC[C@H]2[C@@H]3C=C(Cl)C4=CC(=O)CC[C@]4(C)[C@H]3CC[C@@]21C` , result: 0

// Bas lookup, compound = `O=C(O)c1ccccc1Nc1ccccc1` , result: 0.2

// Bas lookup, compound = CC(S)C(=O)NCC(=O)O (centres undefined) , result: 0
